Assay read-out pIC50 on Vascular endothelial growth factor receptor 2 (Homo sapiens, UniProt P35968); records merged from the literature.
pIC50: −log10 of the molar value.

stdin: Give pIC50 for COc1cc2nccc(Oc3ccc(NC(=O)c4c(C)nc(C)c(C(N)=O)c4O)cc3)c2nc1OC tested on Vascular endothelial growth factor receptor 2 (Homo sapiens, UniProt P35968).
stdout: < 6.52

stdin: # return pIC50 for COCCOc1cc2nccc(Oc3ccc(NC(=O)c4c(C)nc(C)c(OC)c4O)cc3)c2nc1OC , test system: Vascular endothelial growth factor receptor 2 (Homo sapiens, UniProt P35968)
stdout: ≥ 7.00

stdin: Given CCCS(=O)(=O)Nc1ccc(F)c(C(=O)c2c[nH]c3ncc(CCCN4CCOCC4)cc23)c1F , report its pIC50 on Vascular endothelial growth factor receptor 2 (Homo sapiens, UniProt P35968).
stdout: ≥ 5.00

stdin: Provide pIC50, tested on Vascular endothelial growth factor receptor 2 (Homo sapiens, UniProt P35968), for Cc1cnc2[nH]cc(C(=O)c3cccc(NS(=O)(=O)c4ccc(C(F)(F)F)cc4)c3F)c2c1 .
stdout: ≥ 5.00

stdin: Name the value of pIC50 reported for O=C(c1cc(NS(=O)(=O)c2cccc(Cl)c2)ccc1F)c1c[nH]c2ncccc12 when tested on Vascular endothelial growth factor receptor 2 (Homo sapiens, UniProt P35968).
stdout: ≥ 5.00

stdin: Check Vascular endothelial growth factor receptor 2 (Homo sapiens, UniProt P35968) data and give pIC50 for Nc1nc(-c2cc(-c3ccc(O)cc3)ccc2O)cc(N2CCSCC2)n1 .
stdout: 4.70 to 6.00

stdin: Find the measured pIC50 of CC(C)[C@@H](CO)Nc1cc(-c2cc(-c3ccc(O)cc3)ccc2O)nc(N)n1 with Vascular endothelial growth factor receptor 2 (Homo sapiens, UniProt P35968) as test system.
stdout: 4.70 to 6.00

stdin: Report measured pIC50 on Vascular endothelial growth factor receptor 2 (Homo sapiens, UniProt P35968); entry: Nc1cccc(-c2c[nH]c3ncccc23)c1
stdout: ≥ 5.00

###

Compiled record: pIC50 values for Vascular endothelial growth factor receptor 2 (Homo sapiens) across several sources.
Just the number, please; pIC50 means minus log10 of the concentration in mol/L.

stdin: System Vascular endothelial growth factor receptor 2 (Homo sapiens). Read-out pIC50. Item Cc1ccc(S(=O)(=O)N=S(C)c2cccc(Nc3ncc(Br)c(NC4CC4)n3)c2)cc1 (racemic) . Report value.
stdout: 6.77

stdin: Recall the reported pIC50 of Clc1cccc(Cl)c1CNc1cnc(Nc2ccc(OCCN3CCCC3)cc2)nc1 on Vascular endothelial growth factor receptor 2 (Homo sapiens) and write it down.
stdout: 6.04

stdin: Give the observed pIC50 of COc1cc(OC)cc(N(CCCNCC(=O)O)c2ccc3ncc(-c4ccnc(C(=O)NCCCCN)c4)nc3c2)c1 for Vascular endothelial growth factor receptor 2 (Homo sapiens).
stdout: 6.52

stdin: Retrieve pIC50 on Vascular endothelial growth factor receptor 2 (Homo sapiens); query COc1ccc(CN2CCN(c3ccc(-c4cc(N5CC(C#N)C5)cn5ncc(C#N)c45)cn3)CC2)cn1
stdout: 7.54

###

pIC50: −log10 of the molar value.
Before we begin, note that these pIC50 values for Vascular endothelial growth factor receptor 2 (Homo sapiens, UniProt P35968) originate from several publications.

stdin: Look up and report measured pIC50 (Vascular endothelial growth factor receptor 2 (Homo sapiens, UniProt P35968)) for the following molecule: COc1cc(OC)cc(N(CC2CC2)c2ccc3ncc(-c4ccn(CCO)c4)nc3c2)c1
stdout: 6.82

stdin: // output pIC50; input CCOc1ccn(-c2ccc(F)cc2)c(=O)c1C(=O)Nc1ccc(Oc2ccnc3cc(OC)c4c(c23)OCCO4)c(F)c1 ; system Vascular endothelial growth factor receptor 2 (Homo sapiens, UniProt P35968)
stdout: ≥ 7.30

stdin: Enter measured pIC50, system Vascular endothelial growth factor receptor 2 (Homo sapiens, UniProt P35968), for the molecule shown: COc1cc2nccc(Oc3ccc4c(c3)CN(CC(F)F)C(=O)N4)c2cc1C(N)=O
stdout: 6.00 to 6.70

stdin: Give pIC50 only, for COC[C@@H]1CCCN1NC(=S)Nc1ccc(Oc2ccnc3cc(OC)c(C(N)=O)cc23)c(F)c1Cl , using Vascular endothelial growth factor receptor 2 (Homo sapiens, UniProt P35968) data.
stdout: 6.00 to 6.70
